Ref: patent EP2319871A1

List of kon values.
Target: T1, sRAGE (V-C1-C2) lot LP08062 (human, UniProt Q15109 23-342)
T1 construct: extracellular domain; also called Human RAGE; LP08062 (Rage)
T1 sequence (Q15109 23-342): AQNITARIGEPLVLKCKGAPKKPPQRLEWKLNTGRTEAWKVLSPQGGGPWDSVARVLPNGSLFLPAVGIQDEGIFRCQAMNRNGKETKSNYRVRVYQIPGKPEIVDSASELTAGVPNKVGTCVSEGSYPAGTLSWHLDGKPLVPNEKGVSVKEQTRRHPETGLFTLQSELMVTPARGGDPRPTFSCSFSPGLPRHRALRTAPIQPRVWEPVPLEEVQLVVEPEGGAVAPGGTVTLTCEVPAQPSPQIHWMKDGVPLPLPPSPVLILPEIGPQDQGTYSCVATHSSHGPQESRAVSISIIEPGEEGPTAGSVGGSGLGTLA
Experiment: SPR (Biacore), mAb captured on anti-mouse Fc, sRAGE 15 nM, 1:1 Langmuir
The reply should contain only the number, in M⁻¹ s⁻¹.

Before answering, review these 3 worked examples.
binder="56 RAGE-1 (antibody, V domains shown, Hybridoma monoclonal antibody, captured on anti-mouse Fc in Biacore; also called LP08103; Protein 56 RAGE-1) VH: QVQLQQSGPELVKPGASVRISCKASGYTFTSYFIHWVKQRPGQGLEWIGWIYPGNVNTKYNEKFKDKATLTADKSSSTAYMQLSNLTSEDSAVYFCVRGQLGDYWGQGITLTVSS VL: DIVMTQSQKFMSTSVGDRVSVTCKASQNVGINVAWYQQKPGQSPKALIYSASYRYSGVPDRFTGSGSGTDFTLIISNVQSEDLAEYFCQQYNNYPRTFGGGTKLEIK" quantityunit="M⁻¹ s⁻¹" numericresult=2.89e+06
binder="130 RAGE-1 (antibody, V domains shown, Hybridoma monoclonal antibody, captured on anti-mouse Fc in Biacore; also called Protein 130 RAGE-1) VH: EVQLVESGGGLVKPGGSLKLSCAASGFTFSSYVMSWVRQSPEKRLEWVAEISSGGSYTYYPDTVTGRFTISRDNDKNTLYLEMSSLRSEDTAMYYCARPPYGKDAMDYWGQGTSVTVSS VL: QIVLTQSPAIMSASPGEKVTMTCSASSSVSYMHWYQQKSGTSPKRWISDTSKLASGVPARFSGSGSGTSYSLTISSMEAEDAATYYCQQWSSNPPTFGGGTKLEIK" quantityunit="M⁻¹ s⁻¹" numericresult=5.76e+06
binder="152 RAGE-1 (antibody, V domains shown, Hybridoma monoclonal antibody, captured on anti-mouse Fc in Biacore; also called LP08104; Protein 152 RAGE-1) VH: DVQLQESGPDLVKPSQSLSLTCTVTGYSITSGYSWHWIRQFPGNKLEWMGYIHYSGSTNYNPSLKSRISITRDTSKNQFFLQLNSVTTEDTATYYCARGGDFAYWGQGTLVTVSA VL: DIVLTQSPASLAVSLGQRATISCRASKSVGTSDSSYMHWYQQKPGQPPKLLIYLASNLESGVPARFSGSGSGTDFTLNIHPVEEEDAATYYCQHSRELYTFGGGTKLEIK" quantityunit="M⁻¹ s⁻¹" numericresult=3.86e+06

Asked: Specify measured kon for 95 RAGE-1 (antibody, V domains shown, Hybridoma monoclonal antibody, captured on anti-mouse Fc in Biacore; also called Protein 95 RAGE-1) VH: QVQLQQPGAELVKPGASVKLSCKASGYTFTSYWMHWVKQRPGQGLEWIGESNPSNGRTNYNEKFKNKATLTVDKSSSTAYMQLSSLTSEDSAVYYCARAPYYGFDYWGQGTTLTVSS VL: QAVVTQESALTTSPGETVTLTCRSSTGAVTTSNYANWVQEKPDHLFTGLTGGTNNRAPGVPARFSGSLIGDKAALTITGAQTEDEAIYFCALWYSNHWVFGGGTKLTVL .
Given back: 2.66e+06
